- method: JC-1 mitochondrial signal, unstimulated adipocytes – cell-based, JC-1 fluorescence, 3T3-L1 adipocytes, 24 h, 100 nL compound, profiling panel (AID 1168); further: test concentration not given here
- measurement_setup: JC-1 mitochondrial fluorescence, higher = more signal, called active from +8 up or from −8 down
Activity calls are given as the source filed them.
observation_type: z-score

O=C1C[C@@](C(=O)O)(c2ccc([N+](=O)[O-])cc2)[C@@H](c2ccc(CO)cc2)N1CC12CC3CC(CC(C3)C1)C2	0.473 (inactive)
COc1ccc(CCNC(=O)[C@@H]2c3ccccc3C(=O)N(Cc3ccccc3)[C@H]2c2ccc(CO)cc2)cc1	1.26 (inactive)

// for each molecule below, give its z-score
1. CN(C)CCCCCCNC(=O)[C@@H]1C[C@@H]2C(=O)NCC(=O)N2[C@@H]1c1ccc(O)cc1
2. COCCCNC(=O)[C@@]1(Cc2ccccc2N=[N+]=[N-])N=C(c2ccc(OCCCO)cc2)O[C@H]1c1ccccc1CN=[N+]=[N-]
3. CCCCC=C[C@@H](NC(=O)CCc1ccccc1)c1ccccc1
4. C[N+](C)(C)CCCCCCNC(=O)[C@@H]1C[C@@H]2C(=O)NCC(=O)N2[C@@H]1c1ccc(O)cc1
5. C=CCOC(=O)[C@@H]1[C@H]2C(=O)O[C@H](c3ccccc3)[C@H](c3ccccc3)N2[C@H](c2ccc(OCCOC(=O)[C@@H]3C[C@@H]4C(=O)N5CCC[C@H]5C(=O)N4[C@@H]3c3cccc(OCCO)c3)cc2)[C@@]12C(=O)Nc1ccc(I)cc12

["-0.782 (inactive)", "0.557 (inactive)", "-0.775 (inactive)", "0.251 (inactive)", "0.272 (inactive)"]
